These entries and their values trace back to patent US20240392013A1.

Parameter IC50, HEK-BlueIL1β NFκB Reporter Assay: see the listing below.
# TARGET_OR_TEST_SYSTEM: T1, IL1RAP on HEK-Blue IL1β / HEK-Blue IL33 reporter cells (UniProt Q9NPH3 21-570, limits assumed)
# T1 sequence (looked up): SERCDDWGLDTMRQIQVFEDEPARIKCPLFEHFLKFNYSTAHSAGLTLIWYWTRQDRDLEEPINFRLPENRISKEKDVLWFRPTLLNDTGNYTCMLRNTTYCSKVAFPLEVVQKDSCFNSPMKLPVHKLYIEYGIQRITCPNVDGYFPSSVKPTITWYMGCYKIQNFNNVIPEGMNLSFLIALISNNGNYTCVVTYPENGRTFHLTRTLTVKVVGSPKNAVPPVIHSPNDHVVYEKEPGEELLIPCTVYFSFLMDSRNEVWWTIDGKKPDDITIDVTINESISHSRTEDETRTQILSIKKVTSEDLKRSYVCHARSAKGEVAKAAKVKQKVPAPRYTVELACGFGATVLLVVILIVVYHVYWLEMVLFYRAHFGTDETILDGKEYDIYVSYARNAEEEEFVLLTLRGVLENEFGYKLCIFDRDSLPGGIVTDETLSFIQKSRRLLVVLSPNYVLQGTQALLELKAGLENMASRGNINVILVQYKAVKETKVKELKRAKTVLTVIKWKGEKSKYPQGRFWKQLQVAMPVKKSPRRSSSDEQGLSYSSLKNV
# PROTOCOL_DETAILS: cell-based or functional assay

Examples with their reported IC50, HEK-BlueIL1β NFκB Reporter Assay follow.
>>> obs_value("STLX2045 (antibody, V domains shown, Purified from hybridoma of immunized Alivamab mice; intact IgG; captured on anti-mouse IgG Fc sensors in Octet; kappa light chain; also called 74804_45C18A) VH: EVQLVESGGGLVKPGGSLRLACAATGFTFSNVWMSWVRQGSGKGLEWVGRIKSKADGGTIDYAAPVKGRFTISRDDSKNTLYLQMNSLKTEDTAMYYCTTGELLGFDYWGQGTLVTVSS VL: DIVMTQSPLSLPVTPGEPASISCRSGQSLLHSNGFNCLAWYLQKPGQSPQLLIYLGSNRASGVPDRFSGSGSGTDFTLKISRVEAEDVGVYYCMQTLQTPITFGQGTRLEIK")
"1.93e-10 M (implied; unit not printed)"
>>> obs_value("STLX2025 (antibody, V domains shown, Purified from hybridoma of immunized Alivamab mice; intact IgG; captured on anti-mouse IgG Fc sensors in Octet; kappa light chain; also called 74804_25H09A) VH: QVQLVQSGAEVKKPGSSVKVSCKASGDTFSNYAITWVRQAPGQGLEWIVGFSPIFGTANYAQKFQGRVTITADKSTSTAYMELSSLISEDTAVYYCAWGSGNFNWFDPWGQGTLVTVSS VL: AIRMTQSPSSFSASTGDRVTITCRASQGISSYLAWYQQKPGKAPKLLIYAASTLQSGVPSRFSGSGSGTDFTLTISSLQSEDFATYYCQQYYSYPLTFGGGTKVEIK")
"1.77e-09 M (implied; unit not printed)"
>>> obs_value("STLX2005 (antibody, V domains shown, Purified from hybridoma of immunized Alivamab mice; intact IgG; captured on anti-mouse IgG Fc sensors in Octet; kappa light chain; also called 74804_05B24A) VH: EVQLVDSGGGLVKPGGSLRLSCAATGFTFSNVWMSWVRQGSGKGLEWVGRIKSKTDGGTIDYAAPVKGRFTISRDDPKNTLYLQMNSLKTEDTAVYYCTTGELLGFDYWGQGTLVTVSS VL: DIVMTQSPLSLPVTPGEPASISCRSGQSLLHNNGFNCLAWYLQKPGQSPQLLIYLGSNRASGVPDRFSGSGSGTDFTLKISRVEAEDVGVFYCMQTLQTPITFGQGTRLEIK")
"4.46e-10 M (implied; unit not printed)"
>>> obs_value("STLX2007 (antibody, V domains shown, Purified from hybridoma of immunized Alivamab mice; intact IgG; captured on anti-mouse IgG Fc sensors in Octet; kappa light chain; also called 74804_07K10A) VH: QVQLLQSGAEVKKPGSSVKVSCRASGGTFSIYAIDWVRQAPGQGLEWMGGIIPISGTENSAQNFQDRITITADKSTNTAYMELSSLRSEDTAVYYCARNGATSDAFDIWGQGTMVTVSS VL: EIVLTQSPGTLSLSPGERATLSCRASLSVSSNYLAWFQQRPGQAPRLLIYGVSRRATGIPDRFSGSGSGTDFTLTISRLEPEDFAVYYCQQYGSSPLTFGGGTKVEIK")
"3.19e-09 M (implied; unit not printed)"

Let us move to another entry and its IC50, HEK-BlueIL1β NFκB Reporter Assay.
[ask] Could you tell me which IC50, HEK-BlueIL1β NFκB Reporter Assay is on file for STLX2027 (antibody, V domains shown, Purified from hybridoma of immunized Alivamab mice; intact IgG; captured on anti-mouse IgG Fc sensors in Octet; lambda light chain; also called 74804_27I24A) VH: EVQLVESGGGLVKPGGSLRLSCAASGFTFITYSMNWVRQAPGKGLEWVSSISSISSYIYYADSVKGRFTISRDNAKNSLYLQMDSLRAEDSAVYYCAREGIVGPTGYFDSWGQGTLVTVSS VL: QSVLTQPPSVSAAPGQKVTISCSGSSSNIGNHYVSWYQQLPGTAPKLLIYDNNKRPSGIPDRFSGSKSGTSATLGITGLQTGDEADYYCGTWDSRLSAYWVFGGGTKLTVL ?
[reply] 1.96e-09 M (implied; unit not printed)
